System: P. berghei ookinete development
Experiment: microbe, parasite or virus in culture
Details: Plasmodium berghei, read-out: Pb ODA IC50 (µM), this manuscript
parameter measured: IC50 (µM)
Write the number in µM without appending the unit.

CCC1CN2CCc3cc(OC)c(OC)cc3C2CC1CC1NCCc2cc(OC)c(OC)cc21 (centres unmarked): 0.27

Then this compound:
// output IC50; input CC[C@H]1CN2CCc3cc(OC)c(OC)cc3[C@@H]2C[C@@H]1C[C@H]1NCCc2cc(OC)c(OC)cc21 ; system P. berghei ookinete development
0.21

----------
Test system: P. berghei ookinete development
Conditions: read-out: Pb ODA IC50
parameter measured: IC50 (nM)
The response must be a number in nM with no trailing unit.

# return recorded IC50 for entry CCC(C)(C)n1c(C)cc2c3c(N)nc(N)nc3ccc21
1190
